- assay comment: RP, Waters ACQUITY UPLC BEH C18, 100 × 1 mm, 1.7 µm, 50 °C, 0.3 mL/min, estimated dead time 0.17 min; A: water + 10 mM ammonium bicarbonate; B: 10% water + 90% methanol + 10 mM ammonium bicarbonate; gradient (min/%B) 0/0 15/100 21/100 22/0 30/0
- measurement parameters: stereoisomer not certain
measurement label: LC retention time (min)
Give the value, in units of min, as a plain number.

Examples with answers:
compound="Cc1cc(C)c(C2=C(OC(=O)CC(C)(C)C)C3(CCCC3)OC2=O)c(C)c1 [Spiromesifen]" observed_measurement=17.7
compound="CCCCCCOC(=O)c1ccccc1C(=O)OCC(CC)CCCC (stereo not drawn) [2-Ethylhexyl(hexyl)phthalate]" observed_measurement=19.4
compound="C#CC1(OC(C)=O)CCC2C3CCC4=CC(=NO)CCC4C3CCC21CC (stereo not drawn) [Norgestimate]" observed_measurement=16.6

What does the record list as LC retention time for Nc1c(Cl)cc(C(F)(F)F)cc1Cl [2,6-Dichloro-4-trifluoromethylaniline] ?
15.9

Requested read-out: LC retention time. Entry: CC(=O)OC1C(C)OC(n2cc(F)c(N)nc2=O)C1OC(C)=O (stereo not drawn) [2',3'-Di-O-acetyl-5'-deoxy-5-fluorocytidine]
9.61

Recorded LC retention time for Nc1ccccc1Cl [2-Chloroaniline] , please?
10.6

Sample O=c1cccc2n1CC1CNCC2C1 (stereo not drawn) [Cytisin] — what was its LC retention time?
7.53

So what's the measured LC retention time for this one? COc1cc(OC)n2nc(S(=O)(=O)Nc3c(Cl)ccc(C)c3Cl)nc2n1 [Metosulam]
10.9

----------
- assay comment: RP, Waters ACQUITY UPLC BEH C18, 100 × 1 mm, 1.7 µm, 50 °C, 0.3 mL/min, estimated dead time 0.17 min; A: water + 0.1% formic acid + 20 mM ammonium formate; B: methanol + 0.1% formic acid + 20 mM ammonium formate; gradient (min/%B) 0/0 15/100 21/100 22/0 30/0
- measurement parameters: stereoisomer not certain
Label not fulfilled if LC retention time falls below 10 min; label fulfilled in every other case.

# example entries with known answers
compound="[O-][n+]1nc(-n2ccnc2)nc2ccc(Cl)cc21 [Triazoxide]" category_label=fulfilled
compound=O=C1NS(=O)(=O)c2ccccc21 category_label="not fulfilled"

Is LC retention time at least 10 min? Consider CCCCCCCCCCS(=O)(=O)O
fulfilled

Decide: is the reported value of LC retention time for CC(C)CN(CC(O)C(Cc1ccccc1)NC(=O)OC1COC2OCCC12)S(=O)(=O)c1ccc(N)cc1 (centres undefined) equal to or greater than 10 min?
fulfilled

Reported LC retention time reaches at least 10 min for O=c1ccc(=O)[nH][nH]1 [Maleic acid hydazide] ?
fulfilled

Is LC retention time at least 10 min? Consider Nc1ccc(Cl)c(Cl)c1
fulfilled

# bool: LC retention time of O=C(NCCN1CCOCC1)c1ccc(Cl)cc1 [Moclobemide] >= 10 min
not fulfilled

Say whether O=c1c2ccccc2oc2ccccc12 shows LC retention time of 10 min or more.
fulfilled

Say whether OCCc1c[nH]c2ccccc12 [3-(2-Hydroxyethyl)indole] shows LC retention time of 10 min or more.
not fulfilled

Hi team, for COc1ccccc1OCC(O)COC(N)=O (centres undefined) , is the recorded LC retention time at or above 10 min?
not fulfilled

Evaluate NC(=O)c1c(Cl)cccc1Cl [2,6-Dichlorobenzamide] : LC retention time at minimum 10 min?
not fulfilled

hey, is LC retention time for this one >= 10 min? CC=C1CC(C)C(O)(CO)C(=O)OCC2=CCN3CCC(OC1=O)C23 (centres undefined)
not fulfilled

Does the compound COCC(C)N(C(=O)CS(=O)(=O)O)c1c(C)csc1C (centres undefined) [Dimethenamid-M 27 (ESA)] have recorded LC retention time that is 10 min or more?
fulfilled

Hi, just wondering whether Cc1cc(C(C)(C)C)c(O)c(C(C)(C)C)c1 [Dibutylhydroxytoluene] shows LC retention time of 10 min or higher.
fulfilled

Does CCCCCCCCc1ccc(O)cc1 have a reported LC retention time of at least 10 min?
fulfilled

Check the entry Cc1nc2n(c(=O)c1CCN1CCC(c3noc4cc(F)ccc34)CC1)CCCC2 : does LC retention time equal or exceed 10 min?
fulfilled

Dear colleague, could you confirm whether CON=C(C(=O)OC)c1ccccc1COc1ccccc1C has LC retention time at or above 10 min?
fulfilled

For this compound, is measured LC retention time 10 min or higher? O=C(O)c1cc2ccccc2[nH]1
not fulfilled
